Just for reference, ChEMBL document CHEMBL4376816 is where these values come from.

Target: Cytochrome P450 3A4 (Homo sapiens, UniProt P08684)
Sequence (P08684 whole entry): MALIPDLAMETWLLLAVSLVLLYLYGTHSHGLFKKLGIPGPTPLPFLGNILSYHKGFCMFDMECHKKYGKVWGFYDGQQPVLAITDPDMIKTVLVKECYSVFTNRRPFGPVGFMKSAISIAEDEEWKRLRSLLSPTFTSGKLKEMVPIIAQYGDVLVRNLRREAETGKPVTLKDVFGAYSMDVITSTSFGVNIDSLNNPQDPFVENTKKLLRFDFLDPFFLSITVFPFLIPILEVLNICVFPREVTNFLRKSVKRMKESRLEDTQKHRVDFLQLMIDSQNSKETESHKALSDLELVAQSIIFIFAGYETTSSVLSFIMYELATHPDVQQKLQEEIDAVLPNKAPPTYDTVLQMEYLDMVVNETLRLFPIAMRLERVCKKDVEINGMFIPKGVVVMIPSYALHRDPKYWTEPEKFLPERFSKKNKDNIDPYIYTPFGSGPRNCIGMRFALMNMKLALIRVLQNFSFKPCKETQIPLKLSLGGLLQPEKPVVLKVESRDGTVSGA
Assay: Inhibition of recombinant human CYP3A4 expressed in Escherichia coli using coumarin based substrate by fluorescence assay
Type: ADME
Each item that follows carries a reported IC50.

substance.smiles	property	observed.result
COc1cc(N(CC2CC2)c2ccc(Cl)c3ccccc23)cnc1C(=O)[C@H]1C[C@@H]1C(=O)O	IC50	> 20 µM

Consider now this further compound.
Qu. What does the data say about its IC50? Entry: `COc1nc(N(CC(C)(C)F)c2cc(Cl)c(F)cc2F)cnc1C(=O)[C@H]1C[C@@H]1C(=O)O`
Ans. > 30 µM

---

Reported IC50, Leukotriene C4 synthase (Homo sapiens).
property: IC50 (nM)

Use these answered entries as a reference point.
molecule	study.system	unit.abbrev	IC50
COc1nc(N(CC(C)C)c2cc(Cl)c(F)cc2F)cnc1C(=O)[C@H]1C[C@@H]1C(=O)O	Leukotriene C4 synthase (Homo sapiens)	nM	0.28
COc1nc(C(=O)[C@@H]2C[C@H]2C(=O)O)ncc1N(CC1CC1)c1ccc(Cl)c2ccccc12 (relative stereo)	Leukotriene C4 synthase (Homo sapiens)	nM	15.5
COc1nc(N(CC(C)C)c2cc(C(F)(F)F)ccc2F)cnc1C(=O)[C@H]1C[C@@H]1C(=O)O	Leukotriene C4 synthase (Homo sapiens)	nM	0.36
COc1ccccc1C(=O)Nc1ccc(C(=O)c2ccc(N(C)c3ccc(Cl)cc3)cn2)cc1C(=O)O	Leukotriene C4 synthase (Homo sapiens)	nM	35

a = O=C(Nc1ccc(Cc2ccc(NC(=O)c3ccccc3)c(C(=O)O)c2)cc1C(=O)O)c1ccccc1
b = COc1nc(C(=O)[C@H]2C[C@@H]2C(=O)O)ncc1N(CC1CC1)c1cccc2ccccc12
Qu. Smaller IC50 value? Options are a and b Kindly state the label of the option you pick.
Ans. b

---

Assay: Apparent permeability across apical to basolateral side in human Caco2 cells
Details: Caco-2
property: Papp A→B (nm/s)

A = COc1cc(N(CC2CC2)c2ccc(Cl)c3ccccc23)cnc1C(=O)[C@H]1C[C@@H]1C(=O)O
B = COc1nc(N(CC(C)(C)F)c2cc(Cl)c(F)cc2F)cnc1C(=O)[C@H]1C[C@@H]1C(=O)O
Qu. Smaller Papp A→B value? Options are A and B Kindly state the label of the option you pick.
Ans. B

---

Test: AUC in po dosed rat at NOAEL measured after 7 days
Assay type: ADME, organism-based
Details: in vivo
property: AUC (µM·h)
Answer with a number only, understood to be in µM·h.

substance.smiles	AUC [µM·h]
COc1cc(N(CC2CC2)c2ccc(Cl)c3ccccc23)cnc1C(=O)[C@H]1C[C@@H]1C(=O)O	200

Consider now this further compound.
Qu. What does the data say about its AUC? Entry: `COc1nc(N(CC(C)(C)F)c2cc(Cl)c(F)cc2F)cnc1C(=O)[C@H]1C[C@@H]1C(=O)O`
Ans. 4500

---

Assay: Oral bioavailability in Beagle dog at 2 mg/kg via gavage after 48 hrs
Assay type: ADME, organism-based, Canis lupus familiaris
Conditions: in vivo
property: bioavailability (%)

compound	observed.result
COc1cc(N(CC2CC2)c2ccc(Cl)c3ccccc23)cnc1C(=O)[C@H]1C[C@@H]1C(=O)O	91
COc1nc(N(CC(C)(C)F)c2cc(Cl)c(F)cc2F)cnc1C(=O)[C@H]1C[C@@H]1C(=O)O [AZD-9898]	100

---

Test: Volume of distribution at steady state in Han Wistar rat at 0.5 mg/kg, iv or 1 mg/kg, po after 24 hrs
Type: ADME, organism-based
Conditions: in vivo, read-out: Vdss
property: Vd (L/kg)

A = COc1nc(N(CC(C)(C)F)c2cc(Cl)c(F)cc2F)cnc1C(=O)[C@H]1C[C@@H]1C(=O)O [AZD-9898]
B = COc1cc(N(CC2CC2)c2ccc(Cl)c3ccccc23)cnc1C(=O)[C@H]1C[C@@H]1C(=O)O
Qu. Select the item with the higher value of Vd from the options A and B listed. Kindly state the label of the option you pick.
Ans. A
(A: 5.3 L/kg, B: 2.8 L/kg)

---

Assay: Clearance in Beagle dog at 1 mg/kg, iv infusion or 2 mg/kg, po via gavage after 48 hrs
Type: ADME, organism-based, Canis lupus familiaris
Settings: in vivo
property: clearance (mL/min/kg)

compound	observed.result
COc1cc(N(CC2CC2)c2ccc(Cl)c3ccccc23)cnc1C(=O)[C@H]1C[C@@H]1C(=O)O	2.4
COc1nc(N(CC(C)(C)F)c2cc(Cl)c(F)cc2F)cnc1C(=O)[C@H]1C[C@@H]1C(=O)O [AZD-9898]	1.8

---

Assay: Clearance in cynomolgus monkey at 1 mg/kg, iv or 2 mg/kg, po after 48 hrs
Type: ADME, organism-based, Macaca fascicularis
Details: in vivo
property: clearance (mL/min/kg)
Answer with a number only, understood to be in mL/min/kg.

Qu. What does the data say about its clearance? Entry: `COc1nc(N(CC(C)(C)F)c2cc(Cl)c(F)cc2F)cnc1C(=O)[C@H]1C[C@@H]1C(=O)O`
Ans. 0.6

---

Target protein (sequence): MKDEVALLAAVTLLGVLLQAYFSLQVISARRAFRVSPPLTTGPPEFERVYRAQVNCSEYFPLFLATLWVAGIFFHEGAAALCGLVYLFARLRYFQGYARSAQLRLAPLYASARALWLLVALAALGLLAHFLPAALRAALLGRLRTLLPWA
pIC50: −log10 of the molar value.
property: pIC50

Qu. What does the data say about its pIC50? Entry: `CC(C)(O)c1ccccc1CC[C@@H](SCC1(CC(=O)O)CC1)c1cccc(/C=C/c2ccc3ccc(Cl)cc3n2)c1`
Ans. > 5.30

---

Test: Oral bioavailability in Han Wistar rat at 1 mg/kg after 24 hrs
Assay type: ADME, organism-based
Settings: in vivo
property: bioavailability (%)

P = COc1nc(N(CC(C)(C)F)c2cc(Cl)c(F)cc2F)cnc1C(=O)[C@H]1C[C@@H]1C(=O)O [AZD-9898]
Q = COc1cc(N(CC2CC2)c2ccc(Cl)c3ccccc23)cnc1C(=O)[C@H]1C[C@@H]1C(=O)O
Qu. Smaller bioavailability value? Options are P and Q Kindly state the label of the option you pick.
Ans. Q
(Q: 46%, P: 100%)

---

Test: Intrinsic clearance in human hepatocytes at 1 uM assessed as per million cells after 2 to 60 mins by LC-MS/MS analysis
Type: ADME, cell-based, Hepatocyte
Conditions: read-out: CLH
property: hepatocyte CLint at 1 µM (µL/min/1e6 cells)

Use these answered entries as a reference point.
molecule	hepatocyte CLint at 1 µM (µL/min/1e6 cells)
COc1cc(N(CC(C)C)c2cc(C(F)(F)F)ccc2F)cnc1C(=O)[C@H]1C[C@@H]1C(=O)O	3.9
COc1nc(N(CC(C)(C)F)c2cc(C(F)(F)F)ccc2F)cnc1C(=O)[C@H]1C[C@@H]1C(=O)O	1.5
CCN(c1cccc(C(F)(F)F)c1)c1cnc(C(=O)[C@H]2C[C@@H]2C(=O)O)c(OC)c1	3.1

I = COc1cc(N(CC2CC2)c2ccc(Cl)c3ccccc23)cnc1C(=O)CCCC(=O)O
II = COc1cc(N(CC2CC2)c2ccc(Cl)c(Cl)c2)cnc1C(=O)[C@H]1C[C@@H]1C(=O)O
III = COc1nc(N(CC(C)C)c2cc(Cl)c(F)cc2F)cnc1C(=O)[C@H]1C[C@@H]1C(=O)O
Qu. Returns the items ordered by hepatocyte CLint at 1 µM, from maximum to minimum. Field: ranking. Enter the labels in the order requested.
Ans. I, II, III

I = COc1cc(N(CC(C)C)c2cc(Cl)c(F)cc2F)cnc1C(=O)[C@H]1C[C@@H]1C(=O)O
II = CCCN(c1cnc(C(=O)[C@H]2C[C@@H]2C(=O)O)c(OC)c1)c1ccc(F)c2ccccc12
III = COc1nc(N(CC(C)C)c2cc(C(F)(F)F)ccc2F)cnc1C(=O)[C@H]1C[C@@H]1C(=O)O
Qu. Returns the items ordered by hepatocyte CLint at 1 µM, from maximum to minimum. Field: ranking. Enter the labels in the order requested.
Ans. II, I, III

---

Target: Cytochrome P450 1A2 (Homo sapiens)
Sequence (P05177 whole entry): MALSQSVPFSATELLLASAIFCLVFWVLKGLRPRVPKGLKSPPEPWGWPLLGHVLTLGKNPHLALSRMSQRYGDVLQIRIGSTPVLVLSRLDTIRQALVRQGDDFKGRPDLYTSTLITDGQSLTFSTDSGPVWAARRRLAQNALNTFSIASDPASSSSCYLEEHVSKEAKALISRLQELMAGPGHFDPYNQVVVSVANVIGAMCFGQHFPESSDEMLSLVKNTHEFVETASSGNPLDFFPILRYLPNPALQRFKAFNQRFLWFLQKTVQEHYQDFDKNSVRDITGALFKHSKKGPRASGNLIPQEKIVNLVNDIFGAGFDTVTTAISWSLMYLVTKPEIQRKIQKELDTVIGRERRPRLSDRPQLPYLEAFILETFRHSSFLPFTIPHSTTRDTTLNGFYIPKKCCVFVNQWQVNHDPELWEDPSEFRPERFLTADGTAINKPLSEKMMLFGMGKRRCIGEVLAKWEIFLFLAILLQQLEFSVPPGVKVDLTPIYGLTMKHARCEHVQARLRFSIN
Experiment: Inhibition of recombinant human CYP1A2 using coumarin based substrate by fluorescence assay
Each item that follows carries a reported IC50.

Qu. What does the data say about its IC50? Entry: `COc1cc(N(CC2CC2)c2ccc(Cl)c3ccccc23)cnc1C(=O)[C@H]1C[C@@H]1C(=O)O`
Ans. > 20 µM

Qu. Now the molecule `COc1nc(N(CC(C)(C)F)c2cc(Cl)c(F)cc2F)cnc1C(=O)[C@H]1C[C@@H]1C(=O)O`
Ans. > 30 µM
